STUDY_SYSTEM: M1 muscarinic receptor (Homo sapiens, UniProt P11229)
Sequence (P11229 whole entry): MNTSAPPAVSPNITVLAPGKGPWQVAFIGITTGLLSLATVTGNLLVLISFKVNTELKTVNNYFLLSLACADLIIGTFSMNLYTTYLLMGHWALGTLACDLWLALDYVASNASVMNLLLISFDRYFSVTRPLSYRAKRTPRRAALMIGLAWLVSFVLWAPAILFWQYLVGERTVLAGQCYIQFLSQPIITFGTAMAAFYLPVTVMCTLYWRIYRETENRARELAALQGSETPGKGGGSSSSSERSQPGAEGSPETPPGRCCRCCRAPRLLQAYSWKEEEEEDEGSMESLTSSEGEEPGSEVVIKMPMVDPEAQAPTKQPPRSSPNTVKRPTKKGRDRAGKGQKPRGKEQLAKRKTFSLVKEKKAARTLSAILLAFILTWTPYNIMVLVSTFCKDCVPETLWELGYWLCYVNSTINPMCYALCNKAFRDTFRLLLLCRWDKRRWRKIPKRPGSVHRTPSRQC
PROCEDURE_SUMMARY: Functional mobilization of intracellular calcium (FLIPR) in CHO cells expressing M1
SETUP_CONDITIONS: CHO cells expressing M1, FLIPR calcium
QUANTITY_MEASURED: EC50

# input Which EC50 value is on record for CC(=O)N1CCCC(C(=O)N[C@H]2CCC3(CCN(CCC(C)(C)C)CC3)c3cc(F)ccc32)C1 (stereo partly shown) [compound 59] ?
# output < 2 µM

# input // query EC50 value for entry CC(C)(C)CCN1CCC2(CC[C@H](NC(=O)c3cccnc3)c3ccccc32)CC1 [compound 74]
# output < 2 µM

# input Quick one: EC50 for C[C@H](C(=O)N[C@H]1CCC2(CCN(CCC(C)(C)C)CC2)c2ccccc21)N1CCCCC1=O [compound 38] ?
# output < 2 µM

# input compound: CC(C)[C@@H](C(=O)N[C@@H]1CCC2(CCN(CCC(C)(C)C)CC2)c2ccccc21)N1CCCC1=O [compound 126] ; wanted: its EC50
# output > 5 µM

# input Please report the recorded EC50 for CCN(C(=O)C(C)NC(C)=O)[C@H]1CCC2(CCN(CCC(C)(C)C)CC2)c2ccccc21 (stereo partly shown) [compound 34] .
# output < 2 µM

# input Given the compound COC(=O)N(C)[C@H]1CCC2(CCN(CCC(C)(C)C)CC2)c2ccccc21 [compound 174] , what is its reported EC50?
# output 2 to 5 µM

# input Can you look up the measured EC50 of CCN(C(=O)c1cscn1)[C@H]1CCC2(CCN(CCC(C)(C)C)CC2)c2ccccc21 [compound 10] for me?
# output > 5 µM
